Assay: Metabolite identification in rat blood, urine and feces (UHPLC-MS/MS)
Assay type: in vivo, Sprague-Dawley rats
Set-up: key: B, U and F represent blood, urine and feces samples, respectively; B, U and F represent blood, urine and feces samples, respectively; B, U and F represent blood, urine and feces samples, respectively
Settings: rats dosed orally with 20 mg/kg liposomes-encapsulated tHGA, samples over 24 h
readout kind: Source (sample in which the metabolite was detected)

> print(dat)
                                   molecule  value.measured
1  CC(=O)c1c(O)cc(O)c(C/C=C(\C)CCC(O)C(C)(C)O)c1O (centres unmarked)               F
2  CC(=O)c1c(O)cc(O)c(C(O)/C=C(\C)CCC=C(C)C)c1O (centres unmarked)            F, U
3  CC(=O)c1c(O)cc(O)c(C/C=C(\C)CCC(O)=C(C)C)c1O            F, U
4  CC(=O)c1c(O)cc(O)c(C/C=C(C)/C=C/C=C(C)C)c1O               F
5  CC(=O)c1c(O)cc(O)c(C/C=C(\C)CCCC(C)(C)O)c1O               F
6  CC(=O)c1c(O)cc(O)c(C(O)/C=C(\C)CCC(O)=C(C)C)c1O (centres unmarked)               F
7  CC(=O)c1c(O)cc(O)c(C(O)/C=C(C)/C=C/C(O)=C(C)C)c1O (centres unmarked)            F, B
8  CC(=O)c1c(O)cc(OS(=O)(=O)O)c(C(O)/C=C(\C)CCC(O)=C(C)C)c1O (centres unmarked)               B

---

Test: Single-dose pharmacokinetic study of free and liposome-encapsulated tHGA in rats (plasma, LC-HRMS)
Format: in vivo, Sprague-Dawley rats
Details: male, Sprague-Dawley, rat, plasma, po, 20 mg/kg, PO, male S.D rats, plasma, mean n = 6, read-out: Cmax
readout kind: Cmax (ng/mL)

> print(dat)
                                   molecule  readout.kind  value.measured
1  CC(=O)c1c(O)cc(O)c(C/C=C(\C)CCC=C(C)C)c1O [tHGA, 2,4,6-trihydroxy-3-geranylacetophenone]          Cmax             5.4

---

Experiment: Single-dose pharmacokinetic study of free and liposome-encapsulated tHGA in rats (plasma, LC-HRMS)
Assay type: in vivo, Sprague-Dawley rats
Settings: male, Sprague-Dawley, rat, plasma, 20 mg/kg; oral administration, rats (unit as printed in abstract); read-out: AUC0–24
readout kind: AUC(0-t)

> print(dat)
                                   compound  readout.kind  value.measured
1  CC(=O)c1c(O)cc(O)c(C/C=C(\C)CCC=C(C)C)c1O [tHGA, 2,4,6-trihydroxy-3-geranylacetophenone]      AUC(0-t)    17.6 ng·h/mL

---

Test: Single-dose pharmacokinetic study of free and liposome-encapsulated tHGA in rats (plasma, LC-HRMS)
Format: in vivo, Sprague-Dawley rats
Conditions: Sprague-Dawley, rat; PO, 20 mg/kg, male S.D rats, plasma, mean n = 6
readout kind: Tmax (min)

> print(dat)
                                   compound  value.units  value.measured
1  CC(=O)c1c(O)cc(O)c(C/C=C(\C)CCC=C(C)C)c1O [tHGA, 2,4,6-trihydroxy-3-geranylacetophenone]          min              15
